Recorded values, source patent US5919701A.

# System: replication defective HIV generated by 8e5 cells
# Assay Summary: p24 production by 8e5 cells (p24 capture ELISA of cell lysates)
# Type: cell-based, HIV; human T-cell line 8e5
# Particulars: 20 μM, Table 3 (small length oligonucleotides)
For each of the sequences below, state its % p24 production.
Form field: result (number plus unit)

Worked cases, answers included:
GCCTGTCGGG TCCC (GCCTGTCGGGTCCC; chemistry not given here) [SEQ. ID. NO. 22]
31%
GGGCCTGTCGGGTCCCCTCGGG (GGGCCTGTCGGGTCCCCTCGGG; chemistry not given here) [SEQ. ID. NO. 29]
58%
GCCTGTCGGG TCCT (GCCTGTCGGGTCCT; chemistry not given here) [SEQ. ID. NO. 20]
42%
ATTCTGCTATGTCGACACCCAA (ATTCTGCTATGTCGACACCCAA; chemistry not given here) [SEQ. ID. NO. 46]
81%

The sequence CTGTCGGGTC CCCTCGGG (CTGTCGGGTCCCCTCGGG; chemistry not given here) [SEQ. ID. NO. 26] showed % p24 production equal to 44%

---

# Test system: HIV patient isolates (AO18)
# Assay Summary: Plaque assay, HeLa-CD4 cells infected with patient isolates (AO18)
# Assay type: cell-based, HIV; HeLa-CD4 cells
# Particulars: AZT Resistant, plaques formed
Measured Quantity: IC50 (µM)
Give bare numbers, in µM.

The reported IC50 of the sequence CTTCGGGCCTGTCGGGTCCCCTCGGG (CTTCGGGCCTGTCGGGTCCCCTCGGG; chemistry not given here) [SEQ. ID. NO. 18] was 0.055

---

# Tested on: replication defective HIV generated by 8e5 cells
# Assay Summary: p24 production by 8e5 cells (p24 capture ELISA of cell lysates)
# Type: cell-based, HIV; human T-cell line 8e5
# Particulars: 10 μM, 4 days, Table 2; relative to cells treated with random control oligonucleotide SEQ. ID. NO. 47
Measured Quantity: % p24 production (%)
Give bare numbers, in %.

GCTTCTTCCTGCCATAGGAGA (GCTTCTTCCTGCCATAGGAGA; chemistry not given here) [SEQ. ID. NO. 33]
74
GAGCTCTTCGTCGCTGTCTCCGCTTCT (GAGCTCTTCGTCGCTGTCTCCGCTTCT; chemistry not given here) [SEQ. ID. NO. 17]
56
ATTGGTACAAGCAGTTTTAGGCT (ATTGGTACAAGCAGTTTTAGGCT; chemistry not given here) [SEQ. ID. NO. 31]
15
TTGGGAGGTG GGTTGCTTTG (TTGGGAGGTGGGTTGCTTTG; chemistry not given here) [SEQ. ID. NO. 14]
66
CGGGCCTGTCGGGTCCCCTCGGGA (CGGGCCTGTCGGGTCCCCTCGGGA; chemistry not given here) [SEQ. ID. NO. 36]
89
GCCTATTCTGCTATGTCGACACCCAA (GCCTATTCTGCTATGTCGACACCCAA; chemistry not given here) [SEQ. ID. NO. 35]
0

Please examine the following record next.
// sample CTTCGGGCCTGTCGGGTCCCCTCGGG (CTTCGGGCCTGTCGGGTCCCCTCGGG; chemistry not given here) [SEQ. ID. NO. 18] , its % p24 production was 0
